# Test system: NCI-H23 lung
# ASSAY_NOTES: NCI-60 one-dose screen, 48 h
# MEASUREMENT_SETUP: 10 µM unless noted
The panel holds about 83,000 compounds, 20% with a hit somewhere; the sample as a whole holds those more often. Activity calls are given as the source filed them. Rule for the calls: active = growth percent below 10; inactive = the rest.
Hi! Could you answer with just one of these? active, inactive

Answered examples (5):
- O=C(NCCCNc1cc(-c2cn(-c3ccccc3)nc2-c2cccc(O)c2)ccn1)Nc1cc(C(F)(F)F)cc(C(F)(F)F)c1: inactive
- NS(=O)(=O)c1ccc(-n2cc(CC=O)nn2)cc1: inactive
- O=C(Nc1ccc(-c2nc(-c3cccc(O)c3)c(-c3ccnc(Br)c3)[nH]2)cc1)c1ccccc1: inactive
- C#CCOc1ccc(C(Nc2ccc(Cl)cc2)c2nnnn2C2CCCCC2)cc1 (centres undefined): inactive
- O=C(C[n+]1ccnc2ccccc21)c1ccc(O)c(O)c1: inactive

Query :: I'd appreciate the recorded outcome for Clc1ccc(-c2nc3ccc(/C(=N\N=C\c4ccccc4)c4ccccc4)cc3[nH]2)cc1 from this test.
Result :: inactive

Query :: Cool, now COc1ccccc1N1CCN(C2=NN=C(c3cccc(Cl)c3)c3ccccc3C2)CC1
Result :: inactive

Query :: Consider next the compound CN1CCN(c2nc(-c3cnc4ccccc4n3)cc3ccccc23)CC1 in the same way.
Result :: inactive

Query :: Please answer likewise for Oc1ccccc1/C=N/Nc1nc(N/N=C/c2ccccc2O)nc(N2CCOCC2)n1
Result :: inactive

Query :: Another compound to look at: COc1cc2c3c(n(CCCN4CCCC4)c(=O)c2cc1OC)-c1cc2c(cc1C3=O)OCO2
Result :: active

====

# Test system: HCT-116 colon
# ASSAY_NOTES: NCI-60 one-dose screen, 48 h
# MEASUREMENT_SETUP: 10 µM unless noted
About 83,000 compounds went through this panel and 20% of them were active in at least one assay; those are over-represented in the sample as a whole. The source made the active and inactive calls. How the source made its calls: active means growth percent below 10; inactive means the rest.
Response enum: active, inactive

Some entries whose results are on file:
- CCCCOc1ccc(S(=O)(=O)N2CCN(c3nccc(N4CCOCC4)n3)CC2)cc1: inactive
- COc1cc(CNC(=O)/C=C/c2ccccc2)ccc1OCC(=O)NO: inactive
- Cc1occc1-c1nc2s/c(=C\c3cn(-c4ccccc4)nc3-c3ccccc3)c(=O)n2n1: inactive
- C=C(C)[C@@H]1CC[C@]2(C(=O)NCCCN(CCC#N)CCC#N)CC[C@]3(C)[C@H](CC[C@@H]4[C@@]5(C)CCC(=O)C(C)(C)[C@@H]5CC[C@]43C)[C@@H]12: inactive
- CC(C)SC1=NC(=C(C(=N1)NC2=ClC=CC=C2)C#N)C3=CC=CC=C3: inactive
- CC(c1ccccc1)N1C(=O)/C(=C/c2csc(C#N)n2)SC1=S (stereo not given): inactive

Query :: How was CC(=O)c1ccc(NC(=O)COc2ccc(C3SCC(=O)N3c3ccc(Br)cc3)cc2)cc1 (stereo not given) classified in this test?
Result :: inactive

Query :: Request: CN(C)C(=O)C1=NC(CO)C(=O)N(c2ccc(Cl)cc2)N1 (stereo not given)
Result :: inactive

Query :: Subsequent entry: C#C[C@]1(O)CC[C@H]2[C@@H]3CC=C4c5sc(Nc6ccncc6)nc5CC[C@]4(C)[C@H]3CC[C@@]21C
Result :: active

Query :: Another: CCn1c2ccc(/C=N/NS(=O)(=O)CCN(C)C)cc2c2cc(/C=N/NS(=O)(=O)CCN(C)C)ccc21
Result :: inactive

Query :: Check CCc1ccc(NC(=O)N[C@@H](Cc2cccc(F)c2)C(=O)N[C@@H]2C(=O)N3CCC[C@H]3C(=O)N3CCCC[C@H]3C(=O)N[C@@H](CO)C(=O)N3C[C@H](C)C[C@H]3C(=O)O[C@H]2C)c(F)c1 too.
Result :: inactive

Query :: Can you check CCNCCCn1c2c(c3cc(OC)c(OC)cc3c1=O)C(=O)c1cc(OC)cnc1-2 next?
Result :: active

Query :: Follow-up item: CC1OC(O[C@@H]2C(O)C(CO)OC(O[C@H]3COC(O[C@H]4CC[C@]5(C)[C@H]6CC[C@]78OC[C@@]9(CC[C@](C)(C=O)C[C@H]97)[C@H](O)C[C@@]8(C)[C@]6(C)CC[C@H]5C4(C)C)[C@@H](OC4OC(CO)[C@@H](O)[C@@H](O)[C@@H]4O)[C@@H]3O)[C@H]2OC2OC[C@@H](O)[C@@H](O)[C@@H]2O)[C@@H](O)[C@@H](O)[C@H]1O (stereo not given in full)
Result :: active

Query :: Consider next the compound N/C(=N\c1nc2ccc([N+](=O)[O-])cc2s1)C(Cl)(Cl)Cl in the same way.
Result :: inactive

Query :: # iterate: Nc1c(C(=O)c2ccccc2)sc2nc(-c3cnccn3)cc(-c3cccs3)c12
Result :: inactive

====

# Test system: HCT-15 colon
# ASSAY_NOTES: NCI-60 one-dose screen, 48 h
# MEASUREMENT_SETUP: 10 µM unless noted
# Procedure: Growth inhibition of the HCT-15 human tumor cell line is measured as a screen for anti-cancer activity. Cells are grown in 96 well plates and exposed to the test compound for 48 hours. Compounds are tested at a single concentration, which is 10^-5 M for most compounds. The reported endpoint is percent growth (GI% or GIPRCNT), where numbers from 0 - 100% represent growth inhibition, and numbers from -100% - 0 represent cell death. For example, a value of 40 represents 60% growth inhibition. […]
About 83,000 compounds went through this panel and 20% of them were active in at least one assay; those are over-represented in the sample as a whole. Calls of active or inactive are those of the source. How the source made its calls: active means growth percent below 10; inactive means the rest.
Your response should consist of one outcome taken from active, inactive

• COc1cc2c3c(n(CCCN4CCCCC4)c(=O)c2cc1OC)-c1cc2c(cc1C3=O)OCO2 = active

Query :: Hi, do you know how O=C(NNc1nc2cc(F)c(F)cc2n2cccc12)c1cccnn1 came out in this test?
Result :: inactive

Query :: Continue with O=C(Nc1ccc(F)cc1)c1cc(-c2ccc(F)cc2F)ccc1O
Result :: inactive

Query :: Same lookup for C=C(C)C(=O)O[C@H]1C[C@@]2(C)OC(=CC2=O)[C@H](C)[C@H](O)[C@H]2OC(=O)C(=C)[C@@H]21 , please.
Result :: inactive

Query :: Next compound: O=[N+]([O-])c1ccc(-c2nnc(SCc3ccc(O)c4ncccc34)n2-c2ccccc2)cc1
Result :: inactive

====

# System: RXF 393 renal
# ASSAY_NOTES: NCI-60 one-dose screen, 48 h
# MEASUREMENT_SETUP: 10 µM unless noted
About 83,000 compounds went through this panel and 20% of them were active in at least one assay; those are over-represented in the sample as a whole. The source made the active and inactive calls. Rule for the calls: active = growth percent below 10; inactive = the rest.
Bench note: report the call from 1.0 for active, 0.0 for inactive

Query :: In this assay, the call recorded for C/C(=C(/C)C1CC1CCN(C(=O)c1ccc([N+](=O)[O-])cc1)S(=O)(=O)c1ccc(C)cc1)C1CCCCC1 (stereo not given) was what?
Result :: 0.0

Query :: Try this compound too: COc1ccc(NC2=C(Cl)C(=O)C(C)=C(C)C2=O)cc1
Result :: 0.0

Query :: And what about the compound CCOC(=O)c1ccc(N/C=C/C(=O)c2ccccc2)cc1 ?
Result :: 0.0

Query :: Entry O=C(/C=C1\C=CN(CCCCF)c2ccccc21)n1ccc2ccccc21 please
Result :: 0.0

Query :: Try this compound next: C/C(=N\NC(=O)CSc1nc2sc3c(c2c(=O)n1-c1ccccc1)CCC(C)C3)c1ccc(Cl)cc1 (stereo not given)
Result :: 1.0

====

# System: NCI-H23 lung
# ASSAY_NOTES: NCI-60 one-dose screen, 48 h
# MEASUREMENT_SETUP: 10 µM unless noted
About 83,000 compounds went through this panel and 20% of them were active in at least one assay; those are over-represented in the sample as a whole. Activity calls are given as the source filed them. The calls were made as follows: active = growth percent below 10; inactive = the rest.
Allowed answers: active, inactive

Worked cases, answers included:
- CC1CCc2c(sc3nc(SCC(=O)N/N=C/c4cccc(O)c4O)n(-c4ccccc4)c(=O)c23)C1 (centres undefined): inactive
- CCc1ccc(NC(=O)N[C@@H](Cc2cccc(F)c2)C(=O)N[C@@H]2C(=O)N3CCC[C@H]3C(=O)N3CCCC[C@H]3C(=O)N[C@@H](CO)C(=O)N3C[C@H](C)C[C@H]3C(=O)O[C@H]2C)c(F)c1: inactive
- O=c1oc2ccc(-c3ccc(F)cc3F)cc2c(=O)n1-c1ccc(F)c(F)c1: active
- COc1ccc(/C=N\NC(=O)c2ccc3nc(-c4ccc(Br)cc4)[nH]c3c2)cc1: inactive
- NC(=O)c1c(NC(=O)c2cccc(C(F)(F)F)c2F)sc2c1CCC(=O)C2: active

Query :: Please indicate how the test categorized C#C[C@]1(O)CC[C@H]2[C@@H]3CC=C4c5sc(-c6ccc(OC)cc6)nc5CC[C@]4(C)[C@H]3CC[C@@]21C .
Result :: inactive

Query :: Try the compound COc1cc(C2CC(c3ccc(Nc4nc(NCCO)nc(Nc5ccc(Cl)cc5)n4)cc3)=Nc3c(N)nc(N)nc3N2)cc(OC)c1OC (centres undefined)
Result :: inactive

Query :: Consider next the compound O=C(COc1cccc2cccnc12)Nc1ccc(C(=O)/C=C/c2ccc(Cl)cc2)cc1 in the same way.
Result :: inactive

Query :: Now the compound COc1ccc(C(=O)n2cc(C=O)c3ccccc32)cc1
Result :: inactive
